# ASSAY PROCEDURE: Cytotoxicity against human NAMALWA cells assessed as cell survival after 72 hrs by clonogenic assay
# Format: functional, cell-based
# CONDITION CONTEXT: NAMALVA
Provide the reported IC50 of each item.
Quick note: give the figure in nM, leave out the unit.

Sample O=C(CCSSc1ccccn1)Nc1ccc2[nH]c(C(=O)Nc3ccc4[nH]c(C(=O)N5C[C@@H](CCl)c6c5cc(O)c5ccccc65)cc4c3)cc2c1 ; IC50 observed: 0.09

Sample CC(=O)SCCC(=O)Nc1ccc2[nH]c(C(=O)Nc3ccc4[nH]c(C(=O)N5C[C@@H](CCl)c6c5cc(O)c5ccccc65)cc4c3)cc2c1 ; IC50 observed: 0.02

Sample CSSCCC(=O)Nc1ccc2[nH]c(C(=O)Nc3ccc4[nH]c(C(=O)N5C[C@H]6CC67C5=CC(=O)c5ccccc57)cc4c3)cc2c1 (stereo partly specified) ; IC50 observed: 0.012

Sample Nc1ccc2[nH]c(C(=O)Nc3ccc4[nH]c(C(=O)N5C[C@@H](CCl)c6c5cc(O)c5ccccc65)cc4c3)cc2c1 ; IC50 observed: 0.005

Sample CSSCCC(=O)Nc1ccc2[nH]c(C(=O)Nc3ccc4[nH]c(C(=O)N5C[C@@H](CCl)c6c5cc(OP(=O)(O)O)c5ccccc65)cc4c3)cc2c1 ; IC50 observed: 2.9

Sample CSSCCC(=O)Nc1ccc2[nH]c(C(=O)Nc3ccc4[nH]c(C(=O)N5C[C@@H](CCl)c6c5cc(O)c5ccccc65)cc4c3)cc2c1 ; IC50 observed: 0.01
